- System: XF 498 CNS
- assayExplanation: NCI tumour cell line growth inhibition, 48 h
quantityName: TGI

# molecule, quantityName, result
rows = [
    ("O=C(CCc1cc(-c2ccc(F)cc2)n[nH]1)N(Cc1ccccc1)Cc1ccccc1", "TGI", "> 100 µM"),
    ("N#CNC1=NCCC(=O)N1CCc1c[nH]c2ccccc12", "TGI", "> 100 µM"),
    ("COc1ccc(/C=C2/CSC/C(=C/c3ccc(OC)c(OC)c3)C2=O)cc1OC", "TGI", "25.8 µM"),
    ("CCOC(=O)CC(C)C1(C=O)CCCCC1=O (stereo not drawn)", "TGI", "> 100 µM"),
    ("CC1=C(C(=O)NCc2ccccc2)C(c2ccco2)C(C(=O)NCc2ccccc2)=C(C)N1", "TGI", "> 100 µM"),
    ("CCOc1ccccc1NC(=O)C1=C(C)NC(C)=C(C(=O)Nc2ccccc2OCC)C1c1cccc([N+](=O)[O-])c1", "TGI", "> 100 µM"),
    ("OC(CCl)CN1CC[N+]2(CC1)CC[N+]1(CCN(CC(O)CCl)CC1)CC2 (stereo not drawn)", "TGI", "> 50 µM"),
    ("COC1CC(n2cc(F)c(N)nc2=O)OC1CO (stereo not drawn)", "TGI", "> 100 µM"),
]

Numbers sourced from PubChem BioAssay (NCI).
